protocol: qHTS assay to identify small molecule antagonists of the thyroid receptor (TR) signaling pathway - cell viability counter screen (AID 743064); further: nearly all actives have a fitted effect of over 50% in size
studyConditions: GH3.TRE-Luc viability, CellTiter-Fluor, 24 h; series mostly up to 70.3 µM
Inconclusive results are not listed. The source made the active and inactive calls. The call rests on the fitted dose curve; in most records, active means well fitted cell-killing curve with a large enough effect in the repeat runs; inconclusive means weak or mixed curves, or effect the other way; inactive means no such curve, though single readings can be large or run the other way.
Allowed answers: yes = active, no = inactive

What did this assay record as the result for CCCCc1oc2ccc(NS(C)(=O)=O)cc2c1C(=O)c1ccc(OCCCN(CCCC)CCCC)cc1 ?
yes

What did this assay record as the result for CSc1ccc2c(c1)C(N1CCN(C)CC1)Cc1ccccc1S2 (configuration not stated) ?
yes

What did this assay record as the result for CC(C)n1nc(-c2cc3cc(O)ccc3[nH]2)c2c(N)ncnc21 ?
yes

What did this assay record as the result for Oc1cc2ccccc2c2ccccc12 ?
yes

What did this assay record as the result for NC(=O)N1C(=O)C(C(=O)c2cc(Cl)cs2)c2cc(F)c(Cl)cc21 (configuration not stated) ?
yes

What did this assay record as the result for Cc1cccc(CN2CCN(C(c3ccccc3)c3ccc(Cl)cc3)CC2)c1 (configuration not stated) ?
yes

What did this assay record as the result for O=c1cc(-c2ccc(O)cc2)oc2cc(O)cc(O)c12 ?
yes

What did this assay record as the result for CCC(C)(C)C1CCCCC1OC(C)=O (configuration not stated) ?
no

What did this assay record as the result for Cc1cc2c(cc1C(F)(F)F)N(C(=O)Nc1ccc(Oc3cccnc3C)nc1)CC2 ?
no

What did this assay record as the result for Cc1[nH]nc2c1N=C(c1ccccc1Cl)c1cc([N+](=O)[O-])ccc1N2 ?
yes

What did this assay record as the result for O=C(O)c1c(Cl)cccc1Cl ?
no

What did this assay record as the result for O=C(NOCC1CC1)c1ccc(F)c(F)c1Nc1ccc(I)cc1Cl ?
yes

What did this assay record as the result for CS(=O)(=O)CCNCc1ccc(-c2ccc3ncnc(Nc4ccc(OCc5cccc(F)c5)c(Cl)c4)c3c2)o1 ?
no

What did this assay record as the result for CCCC1O[C@@H]2C[C@H]3[C@@H]4CCC5=CC(=O)C=C[C@]5(C)[C@H]4[C@@H](O)C[C@]3(C)[C@]2(C(=O)CO)O1 (some centres not stated) ?
no

What did this assay record as the result for CCCCCCCCCCCCCCCCCC[N+](C)(C)Cc1ccccc1 ?
yes

What did this assay record as the result for CCCCCCCCCCCCCCCS(=O)(=O)Oc1ccccc1 ?
no

What did this assay record as the result for CCCCCCCCCCCCc1ccc(O)cc1 ?
yes

What did this assay record as the result for COc1ccc(-c2ccc3cc(C(=O)O)ccc3c2)cc1C12CC3CC(CC(C3)C1)C2 ?
yes

What did this assay record as the result for Nc1ccc(N)c2ccccc12 ?
yes

What did this assay record as the result for COc1cc(-c2ccc(N=C=O)c(OC)c2)ccc1N=C=O ?
no

What did this assay record as the result for CC1=C(C(=O)OC(C)C)C(c2cccc([N+](=O)[O-])c2)C(C(=O)OC2CN(C(c3ccccc3)c3ccccc3)C2)=C(N)N1 (configuration not stated) ?
yes

What did this assay record as the result for CC(C)(C)c1ccc(C(=O)CCCN2CCC(OC(c3ccccc3)c3ccccc3)CC2)cc1 ?
yes
